- target desc: T1, Suc-AAPV-pNA
- T1 chain: AAPV
- assay conditions: scale: relative to the substrate with the highest activity
readout name: relative activity (initial increase in OD405)

{"columns": ["protein", "measurement"],
 "data": [
  ["Subtilisin 309 variant from Bacillus clausii (protein) AQSVPWGIERVQAPAAHNRGLTGSGVKVAVLDTGISTHPDLRIRGGASFVPGEPSTQDGNGHGTHVAGTIAALDNSIGVLGVAPSEALYAVKVLGASGSGSVSSIAQGLEWAGNNGMHVANLSLGSPSPSATLEQAVNSATSRGVLVVAASGNSGAGSISYPARYANAMAVGATDQNNNRASFSQYGAGLDIVAPGVNILSTWPGSTYASLNGTSMATPHVAGAAALVKQKNPSWSNVQIRNHLKNTATSLGDTWEYGSGLVNAEAATR", 0.0001],
  ["Glutamyl endopeptidase blaSE from Bacillus licheniformis (protein) SVIGSDDRTRVTNTTAYPYRAIVHISSSIGSCTGWMIGPKTVATAGHCIYDTSSGSFAGTATVSPGRNGTSYPYGSVKSTRYFIPSGWRSGNTNYDYGAIELSEPIGNTVGYFGYSYTTSSLVGTTVTISGYPGDKTAGTQWQHSGPIAISETYKLQYAMDTYGGQSGSPVFEQSSSRTNCSGPCSLAVHTNGVYGGSSYNRGTRITKEVFDNLTNWKNSAQ", 0.0001],
  ["Lysyl endopeptidase from Achromobacter lyticus (protein) GVSGSCNIDVVCPEGDGRRDIIRAVGAYSKSGTLACTGSLVNNTANDRKMYFLTAHHCGMGTASTAASIVVYWNYQNSTCRAPNTPASGANGDGSMSQTQSGSTVKATYATSDFTLLELNNAANPAFNLFWAGWDRRDQNYPGAIAIHHPNVAEKRISNSTSPTSFVAWGGGAGTTHLNVQWQPSGGVTEPGSSGSPIYSPEKRVLGQLHGGPSSCSATGTNRSDQYGRVFTSWTGGGAAASRLSDWLDPASTGAQFIDGLDSGGGTP", 0.0007],
  ["Trypsin from Fusarium oxysporum (protein) IVGGTSASAGDFPFIVSISRNGGPWCGGSLLNANTVLTAAHCVSGYAQSGFQIRAGSLSRTSGGITSSLSSVRVHPSYSGNNNDLAILKLSTSIPSGGNIGYARLAASGSDPVAGSSATVAGWGATSEGGSSTPVNLLKVTVPIVSRATCRAQYGTSAITNQMFCAGVSSGGKDSCQGDSGGPIVDSSNTLIGAVSWGNGCARPNYSGVYASVGALRSFIDTYA", 0]
]}
